- run description: Phase 2 toxicokinetics of brincidofovir and cidofovir in plasma
- Type: in vivo, Sprague-Dawley CD rats
- condition parameters: female, Sprague-Dawley CD, rat, plasma, iv, 15 mg/kg, brincidofovir in plasma; 15 mg/kg 2-hour IV infusion, Female rats, Day 7
readout name: AUC(0-t)

[
  {
    "molecule": "CCCCCCCCCCCCCCCCOCCCOP(=O)(O)CO[C@H](CO)Cn1ccc(N)nc1=O [Brincidofovir]",
    "data value": "3420 ng·h/mL"
  }
]
